All figures here come from the supplement of paper PMC12532568.

# System: Danio rerio larvae Tg(actc1b:ZsGreen-LC3), 3 dpf
# test-protocol: LC3 puncta relative area vs vehicle (mean) (log2 fold change); higher = more autophagy
# applied-conditions: NH4Cl: + NH4Cl; 100 µM; treatment time 16 h
Using LC3 puncta (log2) as the sorting value, the categories are L: < 0.4; M: ≥ 0.4 and < 0.6; H: ≥ 0.6

# molecule, class-assignment
data = [
    ("CC(O)CC(=O)O (stereo not given) [Sodium 3-hydroxybutyrate]", "H"),
    ("O=C(O)c1cccnc1", "H"),
    ("C[C@@H](O)CC(=O)O [(R)-3-Hydroxybutyric acid]", "H"),
    ("CCCCCCCCCCCCCCCCCC(=O)O", "H"),
    ("O=c1c(O)c(-c2ccc(O)c(O)c2)oc2cc(O)cc(O)c12", "L"),
]

Where would O=C(O)CC(O)(CC(=O)O)C(=O)O land among the classes by reported LC3 puncta (log2)?
L

Where would C[C@H](O)CCO [(S)-1,3-Butylene Glycol] land among the classes by reported LC3 puncta (log2)?
M

Where would O=C(O)CCC(=O)O land among the classes by reported LC3 puncta (log2)?
L

Where would OCC(O)CO land among the classes by reported LC3 puncta (log2)?
M

====

# System: Danio rerio larvae Tg(actc1b:ZsGreen-LC3), 3 dpf
# test-protocol: LC3 puncta relative area vs vehicle (mean) (log2 fold change); higher = more autophagy
# applied-conditions: NH4Cl: + NH4Cl; 100 µM; treatment time 16 h
Structures can show the parent of a compound that is named as a salt.
reported-property: LC3 puncta (log2)
Numbers only.

Examples with their reported LC3 puncta (log2) follow.
# compound, LC3 puncta (log2)
rows = [
    ("CC(O)CC(=O)O (racemic) [DL-ß-Hydroxybutyric acid sodium salt]", 0.389),
    ("O=C(O)CCSCCC(=O)O", -0.445),
    ("NC(=O)c1ccc[n+]([C@@H]2O[C@H](CO)[C@@H](O)[C@H]2O)c1 [Nicotinamide riboside chloride]", 0.663),
]

Could you report LC3 puncta (log2) for every entry in the following list?
1. Cc1ccc(C(C)C)c(O)c1
2. C[C@@H](O)CCO [(R)-1,3-Butylene Glycol]
3. Cc1ccc(C(C)C)cc1O
4. C/C1=C2N=C(/C=C3N=C(/C(C)=C4\[N-]C(C(CC(N)=O)C4(C)CCC(=O)NCC(C)OP(=O)([O-])OC4C(CO)OC(n5cnc6cc(C)c(C)cc65)C4O)C4(C)N=C1C(CCC(N)=O)C4(C)CC(N)=O)C(CCC(N)=O)C\3(C)C)C(CCC(N)=O)C/2(C)CC(N)=O.[CH3-].[Co+3] (stereo unspecified)
5. C/C1=C2/[N-]C([C@H](CC(N)=O)[C@@]2(C)CCC(=O)NCC(C)OP(=O)([O-])OC2C(O)[C@@H](n3cnc4cc(C)c(C)cc43)O[C@@H]2CO)[C@]2(C)N=C(/C(C)=C3N=C(/C=C4N=C1[C@@H](CCC(N)=O)C\4(C)C)[C@@H](CCC(N)=O)[C@]\3(C)CC(N)=O)[C@@H](CCC(N)=O)[C@]2(C)CC(N)=O.[CH2-]C1O[C@H](n2cnc3c(N)ncnc32)[C@@H](O)[C@H]1O.[Co+3] (stereo partly specified)

1.68
0.179
1.84
0.386
0.394

Could you report LC3 puncta (log2) for every entry in the following list?
1. C[N+](C)(C)CCO.C[N+](C)(C)CCO.C[N+](C)(C)CCO.O=P([O-])([O-])[O-] [Tricholine phosphate]
2. CC(O)C(=O)O (stereo unspecified)
3. CC(=O)OC/C=C(C)/C=C/C=C(C)/C=C/C1=C(C)CCCC1(C)C [Retinol acetate]
4. CC(=O)CC(=O)O [Lithium acetoacetate]
5. CC(=O)C(C)=O
6. O=C(O)C[C@H](O)C(=O)O [(2S)-2-hydroxybutanedioic acid]
7. CCCCCC=CCC=CCCCCCCCC(=O)O
8. CC(C)C[C@H](N)C(=O)O

1. -0.172
2. 0.472
3. 0.948
4. 0.24
5. 0.946
6. 0.375
7. 1.01
8. 0.128

====

# Test system: Danio rerio larvae Tg(actc1b:ZsGreen-LC3), 3 dpf
# test-protocol: LC3 puncta relative area vs vehicle (mean) (log2 fold change); higher = more autophagy
# applied-conditions: NH4Cl: + NH4Cl; 10 µM; treatment time 16 h
I'd appreciate it if you could supply LC3 puncta (log2) values for the items below.
Answers are plain numbers.

Examples with their reported LC3 puncta (log2) follow.
# compound, experimental-result
rows = [
    ("C[C@@H](O)C(=O)O [(2R)-2-hydroxypropanoic acid]", 0.532),
    ("CCCCCCCCCC(=O)[O-].[Na+] [Sodium decanoate]", 0.524),
    ("O=c1oc2cc(O)ccc2c2ccccc12", 0.159),
    ("O=C(O[C@@H]1Cc2c(O)cc(O)cc2O[C@@H]1c1ccc(O)c(O)c1)c1cc(O)c(O)c(O)c1 [(-)-Epicatechin gallate]", 0.221),
    ("Cc1ccc(C(C)C)c(O)c1", 0.947),
]

Could you report LC3 puncta (log2) for every entry in the following list?
1. C/C1=C2N=C(/C=C3N=C(/C(C)=C4\[N-]C(C(CC(N)=O)C4(C)CCC(=O)NCC(C)OP(=O)([O-])OC4C(CO)OC(n5cnc6cc(C)c(C)cc65)C4O)C4(C)N=C1C(CCC(N)=O)C4(C)CC(N)=O)C(CCC(N)=O)C\3(C)C)C(CCC(N)=O)C/2(C)CC(N)=O.[CH3-].[Co+3] (stereo not drawn)
2. CCCC(=O)[O-].[Na+] [Butyric acid sodium salt]
3. O=C(O)CCC(=O)O

1: 0.507; 2: 0.256; 3: 0.752

====

# Test system: Danio rerio larvae Tg(actc1b:ZsGreen-LC3), 3 dpf
# test-protocol: LC3 puncta relative area vs vehicle (mean) (log2 fold change); higher = more autophagy
# applied-conditions: NH4Cl: + NH4Cl; 100 µM; treatment time 16 h
reported-property: LC3 puncta (log2)
Numbers only.

Examples with their reported LC3 puncta (log2) follow.
# molecule, experimental-result
rows = [
    ("Oc1cc(O)c2c(c1)O[C@H](c1ccc(O)c(O)c1)[C@H](O)C2 [(-)-Epicatechin]", 0.232),
    ("N[C@@H](CCC(=O)O)C(=O)O", 0.876),
    ("N[C@H]1C(O)O[C@H](CO)[C@@H](O)[C@@H]1O (some centres not stated)", 0.454),
]

Could you report LC3 puncta (log2) for every entry in the following list?
1. NC(=O)c1ccc[n+]([C@@H]2O[C@H](COP(=O)([O-])O)[C@@H](O)[C@H]2O)c1 [Nicotinamide mononucleotide]
2. O=c1oc2cc(O)ccc2c2ccccc12
3. O=c1oc2c(O)c(O)cc3c(=O)oc4c(O)c(O)cc1c4c23
4. C[C@@H](CO)C(=O)O [Sodium β-hydroxyisobutyrate]

[0.349, 1.04, 0.0739, 0.553]

====

# Tested on: Danio rerio larvae Tg(actc1b:ZsGreen-LC3), 3 dpf
# test-protocol: LC3 puncta relative area vs vehicle (mean) (log2 fold change); higher = more autophagy
# applied-conditions: NH4Cl: + NH4Cl; 10 µM; treatment time 16 h
Where a name gives a salt, the structure may show the parent alone.
Please use label 1 whenever LC3 puncta (log2) is not below 0.7, and label 0 whenever it is.

The examples below pair each entry with its known result.
# compound, class-assignment
measured = [
    ("O=C(O)C[C@H](O)C(=O)O [(2S)-2-hydroxybutanedioic acid]", "label 0"),
    ("O=C(O)CCSCCC(=O)O", "label 0"),
    ("CCC(O)CC(=O)O (stereo not drawn) [b-Hydroxyvalerate]", "label 1"),
    ("C/C=C\\C=C\\C(=O)O", "label 1"),
    ("C/C1=C2/[N-]C([C@H](CC(N)=O)[C@@]2(C)CCC(=O)NCC(C)OP(=O)([O-])OC2C(O)[C@@H](n3cnc4cc(C)c(C)cc43)O[C@@H]2CO)[C@]2(C)N=C(/C(C)=C3N=C(/C=C4N=C1[C@@H](CCC(N)=O)C\\4(C)C)[C@@H](CCC(N)=O)[C@]\\3(C)CC(N)=O)[C@@H](CCC(N)=O)[C@]2(C)CC(N)=O.[CH2-]C1O[C@H](n2cnc3c(N)ncnc32)[C@@H](O)[C@H]1O.[Co+3] (stereo partly drawn)", "label 0"),
    ("CC(C)C[C@H](N)C(=O)O", "label 0"),
    ("CC(O)C(=O)O (stereo not drawn)", "label 0"),
    ("C[C@@H](CO)C(=O)O [Sodium β-hydroxyisobutyrate]", "label 1"),
    ("CC1=C(/C=C/C(C)=C/C=C/C(C)=C/C=C/C=C(C)/C=C/C=C(C)/C=C/C2=C(C)CCCC2(C)C)C(C)(C)CCC1", "label 0"),
    ("C[C@@H](O)CC(=O)O [(R)-3-Hydroxybutyric acid]", "label 1"),
]

In plain terms: is recorded LC3 puncta (log2) at least 0.7 for CCCCCCCCCCCCCCCC(=O)O ?
label 0

In plain terms: is recorded LC3 puncta (log2) at least 0.7 for C[C@@H]1O[C@@H](OC[C@H]2O[C@@H](Oc3c(-c4ccc(O)c(O)c4)oc4cc(O)cc(O)c4c3=O)[C@H](O)[C@@H](O)[C@@H]2O)[C@H](O)[C@H](O)[C@H]1O [Rutin hydrate] ?
label 0

In plain terms: is recorded LC3 puncta (log2) at least 0.7 for CC(C)CC(O)C(=O)O (stereo not drawn) [2-Hydroxyisocaproic acid] ?
label 0

In plain terms: is recorded LC3 puncta (log2) at least 0.7 for CCCCC(=O)[O-].[Na+] [Valeric acid sodium salt] ?
label 0

In plain terms: is recorded LC3 puncta (log2) at least 0.7 for NC(=O)c1cccnc1 [Nicotinamide NAM] ?
label 1

In plain terms: is recorded LC3 puncta (log2) at least 0.7 for C[C@H](O)CCO [(S)-1,3-Butylene Glycol] ?
label 0

In plain terms: is recorded LC3 puncta (log2) at least 0.7 for CCCCCCCC(=O)[O-].[Na+] [Sodium octanoate] ?
label 0

In plain terms: is recorded LC3 puncta (log2) at least 0.7 for CC(O)CC(=O)O (stereo not drawn) [Sodium 3-hydroxybutyrate] ?
label 0

In plain terms: is recorded LC3 puncta (log2) at least 0.7 for CC1=C(/C=C/C(C)=C/C=C/C(C)=C/CO)C(C)(C)CCC1 ?
label 1

In plain terms: is recorded LC3 puncta (log2) at least 0.7 for O=c1c(O)c(-c2ccc(O)c(O)c2)oc2cc(O)cc(O)c12 ?
label 1

In plain terms: is recorded LC3 puncta (log2) at least 0.7 for CC(=O)C(C)=O ?
label 0

In plain terms: is recorded LC3 puncta (log2) at least 0.7 for CCOC(=O)CC(O)(CC(=O)OCC)C(=O)OCC [Triethyl citrate] ?
label 0
